Sourced from the Immune Epitope Database (IEDB)

Below is a list of entries, each paired with its recorded Kd value.
# EXPERIMENTAL SYSTEM: HLA-B*46:01
# TEST PROTOCOL: IEDB peptide-MHC binding, purified MHC/direct/fluorescence; filed as Kd, often an IC50 or EC50 that approximates it; bounds were set here for any values at or beyond the usual limits of such assays
# EXPERIMENTAL CONTEXT: source organism: Mycobacterium tuberculosis

RESIDUES	EXPERIMENTAL SYSTEM	RESULT
FHSRFVQAL	HLA-B*46:01	≥ 20 µM

Consider the additional sequence presented here.
Recall and state the measured Kd for WMRGRGRAL . ≥ 20 µM

----------
# EXPERIMENTAL SYSTEM: HLA-B*73:01
# TEST PROTOCOL: IEDB peptide-MHC binding, purified MHC/competitive/fluorescence; filed as Kd, often an IC50 or EC50 that approximates it; bounds were set here for any values at or beyond the usual limits of such assays
# EXPERIMENTAL CONTEXT: source organism: Burkholderia mallei SAVP1
RECORDED ENDPOINT: pKd
pKd here is simply -log10 of the concentration when that concentration is written in mol/L.

Recall and state the measured pKd for RRFWVGYQQ . 6.05
